Quick reference for melting point among some compounds

Guide cases for melting point, answers given:
COMPOUND	melting point
CC(c1oc2ccc(F)cc2c(=O)c1-c1cccc(F)c1)n1cnc2c(N)ncnc21 (stereo not drawn)	252 to 255 °C
CC(c1oc2ccccc2c(=O)c1-c1cccc(F)c1)n1nc(-c2cccc(C(=O)NC3CC3)c2)c2c(N)ncnc21 (stereo not drawn)	127 to 132 °C

The recorded melting point for entry CC(c1oc2ccccc2c(=O)c1-c1cccc(F)c1)n1nc(-c2cccc(OC(F)F)c2)c2c(N)ncnc21 (stereo not drawn) equals 176 to 179 °C
